Item-by-item account of log10 of DC50
# assay-target: CDK12 (nuclear staining in CAL-120 cells) (Homo sapiens, UniProt Q9NYV4)
# Construct: endogenous in cells; host or cells: CAL-120 human breast cancer cells (DSMZ ACC 459)
# Sequence (Q9NYV4 whole entry): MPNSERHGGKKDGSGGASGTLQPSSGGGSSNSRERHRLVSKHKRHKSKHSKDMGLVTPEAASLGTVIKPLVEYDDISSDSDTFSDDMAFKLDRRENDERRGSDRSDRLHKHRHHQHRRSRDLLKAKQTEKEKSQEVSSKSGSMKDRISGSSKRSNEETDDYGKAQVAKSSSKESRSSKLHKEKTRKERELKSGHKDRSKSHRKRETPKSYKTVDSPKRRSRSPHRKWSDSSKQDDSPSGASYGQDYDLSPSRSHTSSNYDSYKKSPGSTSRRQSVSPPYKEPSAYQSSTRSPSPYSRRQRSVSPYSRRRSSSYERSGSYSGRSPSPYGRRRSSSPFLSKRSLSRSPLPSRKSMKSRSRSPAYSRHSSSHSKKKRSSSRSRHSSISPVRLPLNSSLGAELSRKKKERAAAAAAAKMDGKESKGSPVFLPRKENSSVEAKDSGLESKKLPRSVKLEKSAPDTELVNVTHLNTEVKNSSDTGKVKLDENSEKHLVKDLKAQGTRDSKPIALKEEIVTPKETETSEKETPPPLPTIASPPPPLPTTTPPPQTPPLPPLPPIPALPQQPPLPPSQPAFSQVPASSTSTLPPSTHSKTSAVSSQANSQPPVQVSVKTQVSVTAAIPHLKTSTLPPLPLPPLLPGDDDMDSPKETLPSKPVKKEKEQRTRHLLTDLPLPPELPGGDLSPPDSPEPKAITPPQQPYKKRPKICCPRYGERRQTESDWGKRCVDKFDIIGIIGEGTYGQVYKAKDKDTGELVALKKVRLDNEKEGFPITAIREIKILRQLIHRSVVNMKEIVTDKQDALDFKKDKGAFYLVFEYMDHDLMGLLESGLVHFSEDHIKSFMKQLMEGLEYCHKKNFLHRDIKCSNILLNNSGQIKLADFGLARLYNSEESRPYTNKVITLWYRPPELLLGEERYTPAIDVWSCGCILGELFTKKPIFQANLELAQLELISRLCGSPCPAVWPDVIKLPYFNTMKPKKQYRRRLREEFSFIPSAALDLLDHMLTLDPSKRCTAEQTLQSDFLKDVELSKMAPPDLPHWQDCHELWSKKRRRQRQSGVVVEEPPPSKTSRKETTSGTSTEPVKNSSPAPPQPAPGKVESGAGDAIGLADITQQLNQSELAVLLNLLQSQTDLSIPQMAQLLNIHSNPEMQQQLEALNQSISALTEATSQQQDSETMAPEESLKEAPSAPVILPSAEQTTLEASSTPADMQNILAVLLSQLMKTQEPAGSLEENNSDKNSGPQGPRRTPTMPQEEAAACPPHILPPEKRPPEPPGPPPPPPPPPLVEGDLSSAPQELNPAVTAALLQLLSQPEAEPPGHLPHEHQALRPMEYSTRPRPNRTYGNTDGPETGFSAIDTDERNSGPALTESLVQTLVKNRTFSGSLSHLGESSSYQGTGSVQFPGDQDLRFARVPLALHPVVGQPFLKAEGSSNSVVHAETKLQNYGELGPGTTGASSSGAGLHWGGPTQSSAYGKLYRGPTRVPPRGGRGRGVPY
# Sequence (O75909 whole entry partner): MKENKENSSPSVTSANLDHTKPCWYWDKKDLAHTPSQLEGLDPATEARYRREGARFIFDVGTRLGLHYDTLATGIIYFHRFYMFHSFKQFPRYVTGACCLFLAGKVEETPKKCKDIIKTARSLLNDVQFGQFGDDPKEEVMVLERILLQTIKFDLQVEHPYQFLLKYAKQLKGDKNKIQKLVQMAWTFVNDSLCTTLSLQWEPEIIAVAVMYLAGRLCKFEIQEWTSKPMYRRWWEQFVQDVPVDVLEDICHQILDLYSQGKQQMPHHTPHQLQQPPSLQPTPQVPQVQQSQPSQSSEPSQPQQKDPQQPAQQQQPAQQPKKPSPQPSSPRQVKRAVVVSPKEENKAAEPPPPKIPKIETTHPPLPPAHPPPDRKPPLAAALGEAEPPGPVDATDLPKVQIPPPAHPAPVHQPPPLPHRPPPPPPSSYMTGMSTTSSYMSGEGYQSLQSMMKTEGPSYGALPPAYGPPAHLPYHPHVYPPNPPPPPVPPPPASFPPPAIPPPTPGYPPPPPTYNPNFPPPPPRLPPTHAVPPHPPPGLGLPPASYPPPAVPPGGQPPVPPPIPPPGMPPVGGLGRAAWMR
# method-notes: CDK12 nuclear protein level: immunofluorescence/high content analysis (CAL-120)
# Type: cell-based
# measurement-setup: CAL-120 cells, 24 h, immunofluorescence; 50% reduction of nuclear CDK12 staining intensity; median; read-out: CDK12 degradation IF, DC50- [mol/l] (median)
Kindly note that the scale is log10 and the underlying DC50 is in nM.

>  <molecule>
Cc1ccc2[nH]c(CNc3nc(N4C[C@@H]5CCCN[C@@H]5C4)nc4c(C5CC5)cnn34)nc2c1

>  <log10 of DC50>
0.34

$$$$
>  <molecule>
Cc1cc2nc(CNc3nc(N4CCOCC4)nc4c(Br)cnn34)[nH]c2cc1C

>  <log10 of DC50>
0.89

$$$$
>  <molecule>
Cc1cnn2c(NCc3nc4c(F)c(F)ccc4[nH]3)nc(N3CC4CCC(C3)N4)nc12

>  <log10 of DC50>
0.79

$$$$

Query `Clc1ccccc1-c1nnc(CNc2nc(N3CCOCC3)nc3c(Br)cnn23)[nH]1` yields log10 of DC50 of 1.93

Query `CN(CC(C)(C)O)c1nc(NCc2nc3c(F)cccc3[nH]2)n2ncc(Cl)c2n1` yields log10 of DC50 of 0.98

Query `Fc1ccc(-c2nnc(CNc3nc(N4CCOCC4)nc4c(Br)cnn34)[nH]2)cc1` yields log10 of DC50 of 1.07

Query Brc1cnn2c(NCc3nc4ccccc4[nH]3)nc(N3CC4CCC3CN4)nc12 (stereo not shown) yields log10 of DC50 of 0.62

Query `Brc1cnn2c(NCc3nc4ccccc4[nH]3)nc(N3C[C@H]4CCCN[C@H]4C3)nc12` yields log10 of DC50 of 0.74

Query `CN1CC2CCC(C1)N2c1nc(NCc2nc3ccccc3[nH]2)n2ncc(Br)c2n1` yields log10 of DC50 of 1.44
